assay-method-text: Microsomal stability, human liver microsomes (predicted hepatic clearance)
protocol-conditions: predicted from in vitro microsomal stability data
Think of 0.3 L/h/kg as a floor: if Predicted Hepatic Clearance (Pred. Cl.) stands on it or above, it is met; beneath it, not met.

1. O=C(O)c1ccc2nc(Cc3cc(F)c(-c4cccc(OCc5ccc(C(F)F)cc5F)n4)cc3F)n(Cc3ncco3)c2c1 = not met
2. CCOc1cc(C#N)ccc1COc1cccc(-c2ccc(Cc3nc4ccc(C(=O)O)cc4n3CCOC)c(F)c2)n1 = met
3. N#Cc1ccc(COc2cccc(-c3ccc(Cc4nc5ccc(C(=O)O)cc5n4CC4(CF)CC4)c(C#N)c3)n2)c(F)c1 = not met
4. N#Cc1ccc(COc2cccc(-c3cc(F)c(Cc4nc5ccc(C(=O)O)cc5n4CC4(COC(F)F)CC4)cc3F)n2)c(F)c1 = not met
5. COCCn1c(Cc2c(F)cc(-c3nccnc3OCc3ccc(C#N)cc3F)cc2F)nc2ccc(C(=O)O)cc21 = met
6. COCCn1c(Cc2ccc(-c3cccc(OCc4ccc(C#N)cc4OC(F)F)n3)cc2F)nc2ccc(C(=O)O)cc21 = not met
7. N#Cc1ccc(COc2cccc(-c3ccc(Cc4nc5ccc(C(=O)O)cc5n4Cc4cscn4)c(F)c3)n2)c(F)c1 = not met
